- system name: Gonadotropin-releasing hormone receptor (Homo sapiens)
- Sequence (P30968 whole entry): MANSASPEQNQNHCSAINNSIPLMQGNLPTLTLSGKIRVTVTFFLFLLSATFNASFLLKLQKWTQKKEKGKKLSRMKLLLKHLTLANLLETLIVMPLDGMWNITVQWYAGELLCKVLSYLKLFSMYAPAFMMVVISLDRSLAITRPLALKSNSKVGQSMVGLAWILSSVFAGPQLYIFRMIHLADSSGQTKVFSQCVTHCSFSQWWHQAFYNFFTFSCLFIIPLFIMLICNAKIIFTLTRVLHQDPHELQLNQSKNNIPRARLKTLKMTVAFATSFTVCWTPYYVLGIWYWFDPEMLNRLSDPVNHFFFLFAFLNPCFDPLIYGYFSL
- assay notes: Displacement of [125I]D-Trp6-LHRH from human GnRH receptor expressed in CHO-K1 cell membranes incubated for 1 hr by competitive binding assay
measured metric: IC50 (nM)

(1) Cc1c(N2CCN(Cc3ccccc3)CC2)c(=O)n(C[C@H](N)c2ccccc2)c(=O)n1Cc1c(F)cccc1F
(2) Cc1c(N2CCN(Cc3cccnc3Cl)CC2)c(=O)n(C[C@H](N)c2ccccc2)c(=O)n1Cc1c(F)cccc1C(F)(F)F
(3) CC(=O)c1cccc(CN2CCN(c3c(C)n(Cc4c(F)cccc4C(F)(F)F)c(=O)n(C[C@H](N)c4ccccc4)c3=O)CC2)c1
I would appreciate it if you could sort these 3 molecules by IC50, starting from the smallest number. Thanks in advance for listing the labels in the requested order.
3, 2, 1
(3: 0.16 nM, 2: 2.57 nM, 1: 12 nM)

----------
- system name: Gonadotropin-releasing hormone receptor (Homo sapiens)
- Sequence (P30968 whole entry): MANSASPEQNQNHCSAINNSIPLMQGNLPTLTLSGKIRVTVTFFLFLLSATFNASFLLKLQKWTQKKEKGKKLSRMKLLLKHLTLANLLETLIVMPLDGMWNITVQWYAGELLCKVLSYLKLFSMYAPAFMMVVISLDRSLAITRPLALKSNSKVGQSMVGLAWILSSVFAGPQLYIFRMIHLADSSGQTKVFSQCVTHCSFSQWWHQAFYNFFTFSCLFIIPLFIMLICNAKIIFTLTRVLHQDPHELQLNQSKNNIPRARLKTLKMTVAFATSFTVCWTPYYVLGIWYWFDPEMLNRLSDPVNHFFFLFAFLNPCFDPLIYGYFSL
- assay notes: Displacement of [125I]D-Trp6-LHRH from human GnRH receptor expressed in CHO-K1 cell membranes incubated for 1 hr by competitive binding assay
measured metric: IC50 (µM)

(I) Cc1c(N2CCN(Cc3cccc4ccsc34)CC2)c(=O)n(C[C@H](N)c2ccccc2)c(=O)n1Cc1c(F)cccc1C(F)(F)F
(II) Cc1c(N2CCN(Cc3cccc(OC(F)(F)F)c3)CC2)c(=O)n(C[C@H](N)c2ccccc2)c(=O)n1Cc1c(F)cccc1C(F)(F)F
(III) Cc1c(N2CCN(Cc3cccc(F)c3F)CC2)c(=O)n(C[C@H](N)c2ccccc2)c(=O)n1Cc1c(F)cccc1F
I would appreciate it if you could sort these 3 compounds by IC50, starting from the smallest number. Thanks in advance for listing the labels in the requested order.
II, III, I
(II: 0.001 µM, III: 0.01 µM, I: 0.0182 µM)

----------
- system name: Gonadotropin-releasing hormone receptor (Homo sapiens, UniProt P30968)
- Sequence (P30968 whole entry): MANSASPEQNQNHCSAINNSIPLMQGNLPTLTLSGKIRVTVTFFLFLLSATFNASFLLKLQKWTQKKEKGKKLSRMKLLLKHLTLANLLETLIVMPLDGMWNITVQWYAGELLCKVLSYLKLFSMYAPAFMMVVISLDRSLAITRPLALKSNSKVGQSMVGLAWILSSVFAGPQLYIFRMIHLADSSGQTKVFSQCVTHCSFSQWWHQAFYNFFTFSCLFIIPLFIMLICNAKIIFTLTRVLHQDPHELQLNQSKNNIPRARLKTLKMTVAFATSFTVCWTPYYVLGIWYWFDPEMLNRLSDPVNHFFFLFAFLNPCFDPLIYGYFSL
- assay notes: Antagonist activity against human GnRH receptor expressed in HEK293 cells co-transfected with pGL4-NFAT promoter AP1-luc assessed as inhibition of 20 nM GnRH-induced NFAT activation pre-incubated for 1 hr before GnRH stimulation and measured after 6 hrs by luciferase reporter gene assay
- Format: cell-based
Measured IC50, listed per entry for reference.

- structure smiles: "Cc1c(N2CCN(Cc3cccc4occc34)CC2)c(=O)n(C[C@H](N)c2ccccc2)c(=O)n1Cc1c(F)cccc1C(F)(F)F"
  system name: "Gonadotropin-releasing hormone receptor (Homo sapiens, UniProt P30968)"
  obs value: "> 300 nM"

Requested field: IC50. Item: "Cc1c(N2CCN(Cc3ccc(C(C)(C)C)o3)CC2)c(=O)n(C[C@H](N)c2ccccc2)c(=O)n1Cc1c(F)cccc1C(F)(F)F"
> 300 nM

Requested field: IC50. Item: "Cc1ccc(CN2CCN(c3c(C)n(Cc4c(F)cccc4C(F)(F)F)c(=O)n(C[C@H](N)c4ccccc4)c3=O)CC2)o1"
> 300 nM
